Measured values drawn from patent US7071220B2 for this set.

biological target: Simian chymase (Macaca mulatta); test: Measurement of inhibitory activity of simian chymase (Ang I substrate, His-Leu/OPT fluorescence); format: biochemical, rhesus monkey; conditions: chymase from heart of rhesus monkey; 120 minutes at 37° C.; read-out: Simian chymase IC50 value
Sequence (F6SAJ2 22-247 limits assumed): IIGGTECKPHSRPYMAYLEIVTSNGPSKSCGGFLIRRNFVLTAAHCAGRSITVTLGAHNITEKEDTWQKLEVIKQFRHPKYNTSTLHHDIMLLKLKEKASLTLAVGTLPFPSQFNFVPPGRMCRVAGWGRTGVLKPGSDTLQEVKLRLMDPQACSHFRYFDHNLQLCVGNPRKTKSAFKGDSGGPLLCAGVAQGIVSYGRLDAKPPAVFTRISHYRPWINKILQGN
pIC50: −log10 of the molar value.
pIC50 values, listed per item
EXPERIMENTAL READOUT: pIC50

[[record]]
molecule = "COC(=O)c1ccc(NS(=O)(=O)c2sc3ccccc3c2C)c(S(C)(=O)=O)c1 [Compound 20]"
measurement = 7.41

[[record]]
molecule = "CCS(=O)(=O)c1cc(C(=O)OC)ccc1NS(=O)(=O)c1sc2ccc(Cl)cc2c1C [Compound 4]"
measurement = 6.95

[[record]]
molecule = "Cc1c(S(=O)(=O)Nc2ccc(-c3nc(C(=O)O)co3)cc2S(C)(=O)=O)sc2ccc(Cl)cc12 [Compound 26]"
measurement = 8.00

[[record]]
molecule = "Cc1c(S(=O)(=O)Nc2ccc(C(=O)NCC(=O)O)cc2S(C)(=O)=O)sc2ccc(Cl)cc12 [Compound 52]"
measurement = 6.80

[[record]]
molecule = "CC(=O)c1ccc(NS(=O)(=O)c2sc3ccc(Cl)cc3c2C)c(S(C)(=O)=O)c1 [Compound 11]"
measurement = 7.00

[[record]]
molecule = "Cc1c(S(=O)(=O)Nc2ccc(-c3cnco3)cc2S(C)(=O)=O)sc2ccc(F)cc12 [Compound 48]"
measurement = 8.22

[[record]]
molecule = "Cc1c(S(=O)(=O)Nc2ccc(CO)cc2S(C)(=O)=O)sc2ccc(Cl)cc12 [Compound 13]"
measurement = 6.57

[[record]]
molecule = "CCOC(=O)c1ccc(NS(=O)(=O)c2sc3ccc(Cl)cc3c2C)cc1 [Compound 14]"
measurement = 6.56

